Reference for the values: the supplement of paper PMC6757056

B1: library; a variant is named by its letters at N, in order (parent)
chain: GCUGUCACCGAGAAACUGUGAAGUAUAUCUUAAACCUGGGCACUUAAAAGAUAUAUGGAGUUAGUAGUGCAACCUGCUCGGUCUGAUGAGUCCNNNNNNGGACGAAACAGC

Variants of: B1
Assay: normalized RNA/DNA level without ligand (relative to sTRSVctl = 100) (log10 (% of sTRSVctl)); HEK293T; ligand: cyclic di-GMP (c-di-GMP-II aptamer); higher = less ribozyme self-cleavage, higher mRNA level
Details: reporter: mCherry (pCS4076), ligand present: no
Here, each record is paired with measured normalized RNA/DNA level without ligand (log10) data.
measurementKind: normalized RNA/DNA level without ligand (log10)

# variantLabel, reportedResult
data = [
    ("UAACAC", 1.68),
    ("UUUAUG", 1.71),
    ("AUCUAG", 1.62),
    ("AUGACA", 1.58),
    ("UGUGGU", 1.67),
    ("UAUACG", 1.75),
    ("ACACAU", 1.46),
    ("UAGAAC", 1.64),
    ("AAUCGC", 1.74),
    ("GUGUUC", 1.39),
    ("GCCCAC", 1.66),
    ("UAGGUA", 1.55),
    ("GAUAGG", 1.57),
    ("UUCCGU", 1.7),
    ("UGCAUC", 1.78),
    ("GGAUAC", 1.67),
    ("AACUGU", 1.7),
    ("CCUGUC", 1.69),
    ("CACAGA", 1.53),
    ("GAUGGU", 1.64),
]
